- TEST TARGET: Gal-7–8S–Gal-7 (Homo sapiens, UniProt P47929)
- Construct: two Gal-7 CRDs in one polypeptide joined by the 33-amino-acid linker of Gal-8S (covalent homodimer); recombinant from E. coli
- Sequence (P47929 whole entry): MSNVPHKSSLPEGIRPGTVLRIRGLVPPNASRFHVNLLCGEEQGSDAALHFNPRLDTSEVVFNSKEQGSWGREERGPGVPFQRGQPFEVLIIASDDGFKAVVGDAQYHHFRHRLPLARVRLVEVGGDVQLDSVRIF
- TEST METHOD NOTES: isothermal titration calorimetry
- RUN PARAMETERS: 25 °C, pH 7.2, 20 mM phosphate, 10 mM NaCl, 10 mM beta-mercaptoethanol; one-set-of-sites, n fitted
ASSAY METRIC: pKd
Quick note: pKd values are minus log10 of concentrations in mol/L.

Query :: Value lookup for pKd; key = CC(=O)N[C@H]1C(O)O[C@H](CO)[C@@H](O[C@@H]2O[C@H](CO)[C@H](O)[C@H](O)[C@H]2O)[C@@H]1O (stereo partly shown)
Result :: 3.54

* * *

- TEST TARGET: Gal-3–8S–Gal-7
- Construct: one polypeptide; recombinant from E. coli
- TEST METHOD NOTES: isothermal titration calorimetry
- RUN PARAMETERS: 25 °C, pH 7.2, 20 mM phosphate, 10 mM NaCl, 10 mM beta-mercaptoethanol; one-set-of-sites, n fitted
- Source text: isothermal titration calorimetry on Gal-3–8S–Gal-7
ASSAY METRIC: Kd (µM)
Numeric answer only, unit µM assumed.

Query :: Value lookup for Kd; key = CC(=O)N[C@H]1C(O)O[C@H](CO)[C@@H](O[C@@H]2O[C@H](CO)[C@H](O)[C@H](O)[C@H]2O)[C@@H]1O (stereo partly shown)
Result :: 68.6

* * *

- TEST TARGET: Gal-7 (Homo sapiens, UniProt P47929)
- Construct: gene LGALS7; wild type, recombinant from E. coli, lactosylated Sepharose; non-covalent homodimer
- TEST METHOD NOTES: isothermal titration calorimetry
- Type: binding
- RUN PARAMETERS: 25 °C, pH 7.2
Kd reference
Numeric answer only, unit µM assumed.

[[record]]
compound = "CC(=O)N[C@H]1C(O)O[C@H](CO)[C@H](O)[C@@H]1O[C@@H]1O[C@H](CO)[C@H](O)[C@H](O)[C@H]1O (some centres unmarked) [core 1 mucin-type O-glycan disaccharide]"
numeric_value = 1250


We now examine a further compound.
Query :: Record lookup: for Gal-7 (Homo sapiens, UniProt P47929), what Kd belongs to OC[C@H]1O[C@@H](O[C@H]2[C@H](O)[C@@H](O)C(O)O[C@@H]2CO)[C@H](O)[C@@H](O)[C@H]1O (some centres unmarked) ?
Result :: 323

* * *

- TEST TARGET: Gal-7–Gal-1
- Construct: direct fusion, Gal-7 CRD N-terminal, Gal-1 CRD C-terminal; one polypeptide; recombinant from E. coli
- TEST METHOD NOTES: isothermal titration calorimetry
- RUN PARAMETERS: 25 °C, pH 7.2, 20 mM phosphate, 10 mM NaCl, 10 mM beta-mercaptoethanol; one-set-of-sites, n fitted
ASSAY METRIC: pKd
Quick note: pKd values are minus log10 of concentrations in mol/L.

Query :: Value lookup for pKd; key = CC(=O)N[C@H]1C(O)O[C@H](CO)[C@@H](O[C@@H]2O[C@H](CO)[C@H](O)[C@H](O)[C@H]2O)[C@@H]1O (stereo partly shown)
Result :: 3.99
